Molecular target: AR (androgen receptor) protein in VCaP cells (Homo sapiens)
Construct: endogenous in cells; host or cells: VCaP cells
Assay: VCAP AR Degradation Assay
Type: cell-based
Conditions: 24 h, AR ELISA, top concentration 5 μM, read-out: Y (lowest measured AR level normalized to DMSO control, AR degradation efficiency)
Protocol: VCAP AR Degradation Assay. Test compounds were pre-dispensed into a Corning CellBind 96-well clear bottom plate (Cat #3300) using an acoustic dispenser to make a 10-point concentration series at 1:3 dilution for each compound. The final top concentration of each compound was 5 μM. DMSO at a final concentration of 0.1% was used as a control. […] AR levels in compound-treated wells were normalized to that of DMSO control and expressed as percent of control (PoC) (y). […]
Structures can show the parent of a compound that is named as a salt.
remaining activity at up to 5 µM by entry:
readout_name: remaining activity at up to 5 µM

* C[C@@H]1C[C@H](OCC[C@H]2CC[C@H](N3C(=S)N(c4cnc(C#N)c(C(F)(F)F)c4)C(=O)C3(C)C)CC2)C[C@H](C)N1CC(=O)Nc1cccc2c(C3CCC(=O)NC3=O)nn(C)c12 (some centres unmarked) [Cmpd 25] | 0 to 25%
* Cn1nc(C2CCC(=O)NC2=O)c2cccc(NC(=O)CN3CCN(CCO[C@H]4CC[C@H](N5C(=S)N(c6ccc(C#N)c(C(F)(F)F)c6)C(=O)C5(C)C)CC4)C[C@@H]3C(F)(F)F)c21 (some centres unmarked) [Cmpd 14, hydrochloride] | 0 to 25%
* Cn1nc(C2CCC(=O)NC2=O)c2cccc(NC(=O)CN3CCN(CCCO[C@H]4CC[C@H](N5C(=S)N(c6cnc(C#N)c(C(F)(F)F)c6)C(=O)C5(C)C)CC4)C[C@@H]3C(F)(F)F)c21 (some centres unmarked) [Cmpd 20] | 0 to 25%
* C[C@@H]1C[C@H](CCO[C@H]2CC[C@H](N3C(=S)N(c4cnc(C#N)c(C(F)(F)F)c4)C(=O)C3(C)C)CC2)C[C@H](C)N1CC(=O)Nc1cccc2c(C3CCC(=O)NC3=O)nn(C)c12 (some centres unmarked) [Cmpd 15] | 0 to 25%
* C[C@@H]1CN(CCC[C@H]2CC[C@H](N3C(=S)N(c4ccc(C#N)c(Cl)c4)C(=O)C3(C)C)CC2)C[C@H](C)N1CC(=O)Nc1cccc2c(C3CCC(=O)NC3=O)nn(C)c12 (some centres unmarked) [Cmpd 11] | 30 to 50%

====

Overview of recorded remaining activity at up to 5 µM for various molecules
Biological target: AR (androgen receptor) protein in VCaP cells (Homo sapiens, UniProt P10275)
Construct: endogenous in cells; host or cells: VCaP cells
Sequence (P10275 whole entry): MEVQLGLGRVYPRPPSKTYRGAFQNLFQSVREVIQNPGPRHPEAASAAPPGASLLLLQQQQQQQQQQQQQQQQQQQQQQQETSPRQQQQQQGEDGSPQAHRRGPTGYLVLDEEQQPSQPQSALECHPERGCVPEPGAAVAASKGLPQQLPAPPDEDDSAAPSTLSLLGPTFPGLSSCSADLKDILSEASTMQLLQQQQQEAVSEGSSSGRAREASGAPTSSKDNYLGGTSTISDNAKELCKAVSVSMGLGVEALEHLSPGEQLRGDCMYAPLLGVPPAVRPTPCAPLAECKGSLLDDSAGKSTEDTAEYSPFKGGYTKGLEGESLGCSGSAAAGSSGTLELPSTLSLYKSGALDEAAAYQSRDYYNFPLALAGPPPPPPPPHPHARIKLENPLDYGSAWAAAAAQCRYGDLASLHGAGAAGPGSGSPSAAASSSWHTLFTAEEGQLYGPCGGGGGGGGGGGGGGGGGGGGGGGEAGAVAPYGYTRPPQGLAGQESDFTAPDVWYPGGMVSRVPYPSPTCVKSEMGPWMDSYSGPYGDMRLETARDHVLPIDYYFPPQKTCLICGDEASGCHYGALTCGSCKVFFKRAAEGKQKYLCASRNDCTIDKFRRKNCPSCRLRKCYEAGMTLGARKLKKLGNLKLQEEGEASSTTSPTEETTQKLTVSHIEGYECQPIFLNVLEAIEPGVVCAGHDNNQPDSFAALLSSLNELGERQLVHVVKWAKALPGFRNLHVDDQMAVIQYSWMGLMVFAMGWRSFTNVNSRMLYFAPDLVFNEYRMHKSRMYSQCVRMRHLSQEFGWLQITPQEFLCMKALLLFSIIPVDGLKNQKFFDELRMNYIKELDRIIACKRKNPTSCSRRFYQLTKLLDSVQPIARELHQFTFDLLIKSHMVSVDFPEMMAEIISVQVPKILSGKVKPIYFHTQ
Experiment: VCAP AR Degradation Assay
Assay type: cell-based
Conditions: 24 h, AR ELISA, top concentration 5 μM, read-out: Y (lowest measured AR level normalized to DMSO control, AR degradation efficiency)
Structures can show the parent of a compound that is named as a salt.
readout_name: remaining activity at up to 5 µM

- C[C@@H]1C[C@H](OCCO[C@H]2CC[C@H](N3C(=S)N(c4cnc(C#N)c(C(F)(F)F)c4)C(=O)C3(C)C)CC2)C[C@H](C)N1CC(=O)Nc1cccc2c(C3CCC(=O)NC3=O)nn(C)c12 (stereo partly shown) [Cmpd 28]: 0 to 25%
- C[C@@H]1C[C@H](OCCC[C@H]2CC[C@H](N3C(=S)N(c4cnc(C#N)c(C(F)(F)F)c4)C(=O)C3(C)C)CC2)C[C@H](C)N1CC(=O)Nc1cccc2c(C3CCC(=O)NC3=O)nn(C)c12 (stereo partly shown) [Cmpd 24]: 0 to 25%
- C[C@@H]1CN(CCC[C@H]2CC[C@H](N3C(=S)N(c4ccc(C#N)c(C(F)(F)F)c4)C(=O)C3(C)C)CC2)C[C@H](C)N1CC(=O)Nc1cccc2c(C3CCC(=O)NC3=O)nn(C)c12 (stereo partly shown) [Cmpd 2, hydrochloride]: 30 to 50%
- C[C@@H]1C[C@H](CCO[C@H]2CC[C@H](N3C(=S)N(c4ccc(C#N)c(C(F)(F)F)c4)C(=O)C3(C)C)CC2)C[C@H](C)N1CC(=O)Nc1cccc2c(C3CCC(=O)NC3=O)nn(C)c12 (stereo partly shown) [Cmpd 13, hydrochloride]: 0 to 25%
